Tested on: human lung cancer cells A549
Test: MTT growth inhibition, A549 cells
Format: cell-based
Conditions: 72 h after treatment, read-out: Drug concentration (IC50) at which 50% cancer cells survived
Description: […] (5) Colorimetric analysis: the wavelength was selected as 570 nm, the light absorbance (A value) of each well was determined on the microplate reader and the results were recorded; the experiment was repeated for three times; (6) the experimental results were calculated according to the following formula: relative survival rate=(A value of each experimental group/A value of cell control group)×100% […] IC50 of the detected component was calculated by using a regression equation.
Here, each record is paired with measured log10(IC50) data.
MEASURE: log10(IC50) (log10 of the value in µM)

# COMPOUND, OBSERVED
rows = [
    ("CCNC(=O)CC[C@@H](NC(=O)c1cc2cc(Cl)cc(Cl)c2oc1=O)C(=O)OCC [Compound Ig]", 1.65),
    ("O=C(O)c1cc2cc(Br)ccc2oc1=O [Compound IIId, 6-bromocoumarin-3-carboxylic acid]", 2.78),
    ("CCNC(=O)CC[C@H](N)C(=O)OC [Compound IIa, theanine methyl ester]", 2.81),
    ("CCNC(=O)CC[C@@H](NC(=O)c1cc2cc(Cl)ccc2oc1=O)C(=O)OCC [Compound Ic]", 2.11),
    ("CCNC(=O)CCC(NC(=O)c1cc2cc(F)ccc2oc1=O)C(=O)OCC (stereo in doubt) [Compound Ie]", 2.15),
    ("O=C(O)c1cc2cc(Cl)ccc2oc1=O [Compound IIIc, 6-chlorocoumarin-3-carboxylic acid]", 2.78),
    ("CC[C@]1(O)C[C@H]2CN(CCc3c([nH]c4ccccc34)[C@@](C(=O)OC)(c3cc4c(cc3OC)N(C=O)[C@H]3[C@@](O)(C(=O)OC)[C@H](OC(C)=O)[C@]5(CC)C=CCN6CC[C@]43[C@@H]65)C2)C1 [Vincristine, reference compound]", 2.34),
    ("CCNC(=O)CC[C@@H](NC(=O)c1cc2cc(Br)ccc2oc1=O)C(=O)OCC [Compound Id]", 2.14),
    ("O=C(O)c1cc2cc(Br)cc(Br)c2oc1=O [Compound IIIh, 6,8-dibromo-coumarin-3-carboxylic acid]", 2.65),
    ("O=C(O)c1cc2cc(F)ccc2oc1=O [Compound IIIe, 6-fluorocoumarin-3-carboxylic acid]", 2.65),
    ("CCNC(=O)CCC(NC(=O)c1cc2ccccc2oc1=O)C(=O)OCC (stereo not drawn) [Compound Ib]", 2.10),
    ("CCNC(=O)CC[C@@H](NC(=O)c1cc2cc(Br)cc(Br)c2oc1=O)C(=O)OCC [Compound Ih]", 1.75),
    ("CCNC(=O)CCC(NC(=O)c1cc2ccccc2oc1=O)C(=O)OC (stereo not drawn) [Compound Ia]", 2.48),
    ("CCNC(=O)CC[C@H](N)C(=O)OCC [Compound IIb, theanine ethyl ester]", 2.70),
    ("O=C(O)c1cc2cc([N+](=O)[O-])ccc2oc1=O [Compound IIIf, 6-nitrocoumarin-3-carboxylic acid]", 2.76),
    ("CCNC(=O)CCC(NC(=O)c1cc2cc([N+](=O)[O-])ccc2oc1=O)C(=O)OCC (stereo in doubt) [Compound If]", 2.09),
    ("O=C(O)c1cc2cc(Cl)cc(Cl)c2oc1=O [Compound IIIg, 6,8-dichloro-coumarin-3-carboxylic acid]", 2.52),
]
